Biological target: α4β1 integrin (Homo sapiens, UniProt P05556+P13612)
Construct: a T-cell line, Jurkat, known to express the α4β1 integrin; host or cells: Jurkat T-cell line
Sequence (P13612 34-1032): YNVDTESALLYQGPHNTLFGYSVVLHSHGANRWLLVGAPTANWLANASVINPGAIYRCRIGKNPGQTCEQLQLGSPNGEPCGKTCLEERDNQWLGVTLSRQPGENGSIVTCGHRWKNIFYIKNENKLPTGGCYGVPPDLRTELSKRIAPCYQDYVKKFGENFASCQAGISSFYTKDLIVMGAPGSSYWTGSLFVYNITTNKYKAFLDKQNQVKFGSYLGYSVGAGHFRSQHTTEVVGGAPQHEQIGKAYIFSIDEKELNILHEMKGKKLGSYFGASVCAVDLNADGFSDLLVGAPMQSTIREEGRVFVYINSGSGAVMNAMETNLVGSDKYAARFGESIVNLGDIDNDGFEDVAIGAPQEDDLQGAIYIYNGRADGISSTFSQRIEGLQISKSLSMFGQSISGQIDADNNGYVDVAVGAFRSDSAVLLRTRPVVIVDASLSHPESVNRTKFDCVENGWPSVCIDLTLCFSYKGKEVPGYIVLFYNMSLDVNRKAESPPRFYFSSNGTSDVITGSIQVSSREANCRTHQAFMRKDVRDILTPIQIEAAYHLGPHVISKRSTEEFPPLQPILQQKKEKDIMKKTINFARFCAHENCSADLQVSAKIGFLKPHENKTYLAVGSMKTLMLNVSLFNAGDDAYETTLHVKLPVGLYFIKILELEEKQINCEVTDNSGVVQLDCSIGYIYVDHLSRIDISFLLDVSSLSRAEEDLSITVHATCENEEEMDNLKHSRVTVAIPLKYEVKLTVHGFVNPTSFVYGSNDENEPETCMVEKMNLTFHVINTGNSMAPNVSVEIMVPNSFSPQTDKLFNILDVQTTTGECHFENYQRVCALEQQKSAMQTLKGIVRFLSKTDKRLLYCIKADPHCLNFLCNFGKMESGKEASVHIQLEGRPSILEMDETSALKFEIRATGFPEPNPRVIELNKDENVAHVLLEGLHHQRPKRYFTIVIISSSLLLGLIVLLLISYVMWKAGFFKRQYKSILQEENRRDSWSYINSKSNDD
Sequence (P05556 21-798): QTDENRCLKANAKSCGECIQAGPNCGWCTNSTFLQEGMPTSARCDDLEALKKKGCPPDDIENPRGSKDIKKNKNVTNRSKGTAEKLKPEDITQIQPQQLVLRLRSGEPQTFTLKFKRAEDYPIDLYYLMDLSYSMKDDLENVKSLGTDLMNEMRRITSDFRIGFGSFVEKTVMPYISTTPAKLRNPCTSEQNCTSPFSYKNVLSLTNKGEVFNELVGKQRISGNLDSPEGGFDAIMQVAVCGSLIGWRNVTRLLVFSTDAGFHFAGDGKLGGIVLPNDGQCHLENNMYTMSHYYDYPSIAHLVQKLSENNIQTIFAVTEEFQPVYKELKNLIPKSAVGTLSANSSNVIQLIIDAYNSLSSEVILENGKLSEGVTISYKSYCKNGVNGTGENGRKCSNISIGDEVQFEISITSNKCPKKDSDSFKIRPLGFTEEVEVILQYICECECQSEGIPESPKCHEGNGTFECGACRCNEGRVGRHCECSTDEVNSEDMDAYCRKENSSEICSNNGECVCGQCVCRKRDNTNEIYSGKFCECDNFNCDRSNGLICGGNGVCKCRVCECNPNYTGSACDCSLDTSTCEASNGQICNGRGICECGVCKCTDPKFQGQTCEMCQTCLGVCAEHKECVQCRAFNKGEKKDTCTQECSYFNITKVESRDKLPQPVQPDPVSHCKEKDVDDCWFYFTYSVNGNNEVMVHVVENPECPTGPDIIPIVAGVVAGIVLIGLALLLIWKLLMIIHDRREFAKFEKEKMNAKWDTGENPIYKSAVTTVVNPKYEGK
Experiment: Jurkat-Endothelial Cell Adhesion Assay (Jurkat EC)
Format: cell-based
Settings: Jurkat cell adhesion to IL-1 stimulated endothelial cell monolayers
IC50 listing for selected molecules.

IC50 for CC(=O)[C@@H]1C[C@H](C(=O)N[C@@H](Cc2ccc(NC(=O)c3c(Cl)cccc3Cl)cc2)C(=O)O)C1(C)C is ≤ 800 nM

Reported IC50 of O=C(Nc1ccc(C[C@H](NC(=O)[C@@H]2CCC[C@H]2C(=O)O)C(=O)O)cc1)c1c(Cl)cccc1Cl : 800 to 5000 nM

Record summary for CC1=C(C(=O)O)C(C)(C)CC/C1=C\C(=O)N[C@@H](Cc1ccc(NC(=O)c2c(Cl)cccc2Cl)cc1)C(=O)O : reported IC50 = 800 to 5000 nM

Field IC50 (entry O=C(Nc1ccc(C[C@H](NC(=O)N2CCCC[C@H]2C(=O)O)C(=O)O)cc1)c1c(Cl)cccc1Cl ) reads 5000 to 10000 nM

Value of IC50 reported for the molecule O=C(Nc1ccc(C[C@H](NC(=O)C2(NC(=O)C3NC(C(=O)O)CS3)CCCCC2)C(=O)O)cc1)c1c(Cl)cccc1Cl (some centres unmarked) is ≤ 800 nM

// IC50 value for CC(C)(Oc1cccc(C(=O)O)c1)C(=O)N[C@@H](Cc1ccc(NC(=O)c2c(Cl)cccc2Cl)cc1)C(=O)O : 800 to 5000 nM

Documented IC50 of COC(=O)[C@H](Cc1ccc(NC(=O)c2c(Cl)cccc2Cl)cc1)NC(=O)c1cccc2c1CCC/C2=C/C(=O)O : 800 to 5000 nM

The measured IC50 associated with O=C(O)c1cccc(C(=O)NC2(C(=O)N[C@@H](Cc3ccc(NC(=O)c4c(Cl)cccc4Cl)cc3)C(=O)O)CC3CCC2C3)n1 (some centres unmarked) reads 800 to 5000 nM

* * *

Target: α4β1 (Homo sapiens, UniProt P05556+P13612)
Construct: 100 µl of Jurkat cells (2.5 x 10^6 cells/ml) in DMEM plus BSA; host or cells: Jurkat T-cell line
Sequence (P13612 34-1032): as the sequence (P13612 34-1032) above
Sequence (P05556 21-798): as the sequence (P05556 21-798) above
Assay: Jurkat-CS-1 assay
Assay type: cell-based
Settings: Jurkat cell adhesion to immobilized CS-1 derived peptide
pIC50: −log10 of the molar value.
# pIC50 values compiled below

Answered cases to consult:
COMPOUND	pIC50
O=C(Nc1ccc(C[C@H](NC(=O)C2(NC(=O)C3CCCO3)CC3CCC2C3)C(=O)O)cc1)c1c(Cl)cccc1Cl (stereo partly shown)	6.30 to 7.10
O=C(O)/C=C/c1cccc(C(=O)N[C@@H](Cc2ccc(NC(=O)c3c(Cl)cccc3Cl)cc2)C(=O)O)c1	6.00 to 6.30
O=C(NC1(C(=O)N[C@@H](Cc2ccc(NC(=O)c3c(Cl)cccc3Cl)cc2)C(=O)O)CCCCC1)c1ccc([N+](=O)[O-])o1	6.30 to 7.10
O=C(NC1(C(=O)N[C@@H](Cc2ccc(NC(=O)c3c(Cl)cccc3Cl)cc2)C(=O)O)CCCCC1)c1cc(C(=O)O)[nH]n1	6.30 to 7.10
O=C(O)c1cccc(C(=O)NC2(C(=O)N[C@@H](Cc3ccc(NC(=O)c4c(Cl)cccc4Cl)cc3)C(=O)O)CCCCC2)c1	6.30 to 7.10
O=C(NC1(C(=O)N[C@@H](Cc2ccc(NC(=O)c3c(Cl)cccc3Cl)cc2)C(=O)O)CCCCC1)c1cccnc1	6.30 to 7.10
O=C(O)CCC(=O)NC1(C(=O)N[C@@H](Cc2ccc(NC(=O)c3c(Cl)cccc3Cl)cc2)C(=O)O)CCCCC1	6.30 to 7.10
O=C(O)CCC(=O)Nc1cccc(C(=O)N[C@@H](Cc2ccc(NC(=O)c3c(Cl)cccc3Cl)cc2)C(=O)O)c1	6.00 to 6.30
CC(=O)[C@H]1C[C@H](C(=O)N[C@@H](Cc2ccc(NC(=O)c3c(Cl)cccc3Cl)cc2)C(=O)O)C1(C)C	≥ 7.10
O=C(NC1(C(=O)N[C@@H](Cc2ccc(NC(=O)c3c(Cl)cccc3Cl)cc2)C(=O)O)CC2CCC1C2)c1ccc([N+](=O)[O-])o1 (stereo partly shown)	6.30 to 7.10

The value of pIC50 recorded for CC1=C(C(=O)N[C@@H](Cc2ccc(OCc3c(Cl)cccc3Cl)cc2)C(=O)O)C(C)(C)CC/C1=C\C(=O)O when tested on α4β1 (Homo sapiens, UniProt P05556+P13612) reads ≥ 7.10

Tested system α4β1 (Homo sapiens, UniProt P05556+P13612); pIC50 recorded for O=C(O)/C=C\C(=O)Nc1cccc(C(=O)N[C@@H](Cc2ccc(NC(=O)c3c(Cl)cccc3Cl)cc2)C(=O)O)c1 was 6.00 to 6.30

α4β1 (Homo sapiens, UniProt P05556+P13612) assay, compound CC(C)(CC(=O)O)CC(=O)NC1(C(=O)N[C@@H](Cc2ccc(NC(=O)c3c(Cl)cccc3Cl)cc2)C(=O)O)CCCCC1 , recorded pIC50 = 6.30 to 7.10
